Below is a list of entries, each paired with its recorded inhibition at 10 µM value.
# Subject Of Test: human orexin 1 receptor (hOx1R) (Homo sapiens)
# Construct: expressed in transfected cells
# Sequence (O43613 whole entry): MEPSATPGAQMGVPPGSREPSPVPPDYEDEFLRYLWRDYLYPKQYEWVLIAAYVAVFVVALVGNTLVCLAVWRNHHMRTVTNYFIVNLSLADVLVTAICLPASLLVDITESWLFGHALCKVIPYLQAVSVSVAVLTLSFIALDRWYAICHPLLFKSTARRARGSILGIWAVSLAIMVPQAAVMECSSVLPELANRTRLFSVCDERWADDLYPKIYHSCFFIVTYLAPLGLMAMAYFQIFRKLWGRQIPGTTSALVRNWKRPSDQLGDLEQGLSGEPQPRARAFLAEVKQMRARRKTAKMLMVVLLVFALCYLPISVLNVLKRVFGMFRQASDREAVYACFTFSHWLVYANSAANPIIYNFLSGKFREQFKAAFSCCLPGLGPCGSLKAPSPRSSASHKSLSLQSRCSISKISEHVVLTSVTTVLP
# Assay Comment: Calcium accumulation in cells (FLIPR), antagonism of orexin A, hOx1R
# Assay type: cell-based
# Condition: measured at a concentration of 10 μM of compound (cells marked ^a)
# Protocol: Cells expressing human orexin 1 or human orexin 2 receptors, were seeded at 8,000 cells/well in 384 well black-walled clear bottom, poly-D-lysine coated plates. […] On the day of the experiment, the cells seeded in black plates were treated with assay buffer containing the Ca^2+ sensitive fluorescent dye Fluo-4-AM (2 μM), and probenecid (0.1 mM). […] Fluorescence measurements were then continued every 1 S for 120 S followed by every 4 S for 240 S. […]
Recorded Metric: inhibition at 10 µM

1. CN(C(=O)c1ccccc1)[C@](C)(CCNC(=O)c1ccccn1)Cc1ccccc1 = 25%
2. CN(C(=O)c1ccccc1)[C@H](CCNC(=O)c1ccccn1)C(C)(C)c1ccccc1 = 34%
3. CN(C(=O)c1ccc2c(c1)OCO2)[C@@H](Cc1ccccc1)[C@H](O)CNC(=O)c1ccc2c(c1)OCO2 = 27%
4. CN(C(=O)c1cccc2c1OCCO2)[C@H](CCNC(=O)c1ccccn1)Cc1ccccc1 = 9%
5. CN(C(=O)c1ccccc1)[C@H](CCNC(=O)c1cccc2c1OCO2)Cc1ccccc1 = 24%
6. CN(C(=O)c1ccc2c(c1)OCO2)[C@H](CCNC(=O)c1ccccn1)Cc1ccc(F)cc1 = 16%
7. CN(C(=O)c1ccccc1)[C@H](CCNC(=O)c1ccccn1)Cc1ccc(F)cc1 = 0%
8. CN(C(=O)c1ccccc1)[C@H](CCNC(=O)c1ccnc2ccccc12)Cc1ccccc1 = 4%
